Experimental target: acetylcholinesterase (AChE) (Homo sapiens, UniProt P22303)
Sequence (P22303 32-614, species assumed): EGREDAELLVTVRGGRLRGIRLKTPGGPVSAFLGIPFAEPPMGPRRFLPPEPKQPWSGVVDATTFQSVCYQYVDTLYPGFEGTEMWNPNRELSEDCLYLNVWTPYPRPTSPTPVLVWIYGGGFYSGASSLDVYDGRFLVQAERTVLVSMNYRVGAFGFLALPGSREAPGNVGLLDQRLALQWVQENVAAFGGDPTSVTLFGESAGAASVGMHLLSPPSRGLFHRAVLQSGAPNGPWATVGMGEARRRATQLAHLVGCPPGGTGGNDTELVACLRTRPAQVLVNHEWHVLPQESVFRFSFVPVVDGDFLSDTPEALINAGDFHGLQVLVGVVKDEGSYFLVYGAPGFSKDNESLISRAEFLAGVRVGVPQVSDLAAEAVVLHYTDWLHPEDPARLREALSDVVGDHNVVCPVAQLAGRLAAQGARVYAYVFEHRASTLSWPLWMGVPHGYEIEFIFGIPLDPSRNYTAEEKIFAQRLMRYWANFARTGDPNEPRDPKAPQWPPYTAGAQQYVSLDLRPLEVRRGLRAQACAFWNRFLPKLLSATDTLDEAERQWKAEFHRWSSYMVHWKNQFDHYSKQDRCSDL
Measurement description: biochemical
Type: biochemical
Condition label: read-out: AChE IC50 (µM ± SEM)
Quantity: IC50

Some solved entries appear below for comparison.
| Given smiles | Quantity | Reported |
| --- | --- | --- |
| COc1ccc2[nH]c(-c3ccc([N+](=O)[O-])cc3)nc2c1 | IC50 | 2.1 µM |
| COc1ccc2[nH]c(-c3ccc(OC)c(O)c3)nc2c1 | IC50 | 2.3 µM |
| COc1ccc2[nH]c(-c3cc(Br)ccc3OC)nc2c1 | IC50 | 6.1 µM |
| COc1ccc2[nH]c(-c3cc(OC)c(O)c(OC)c3)nc2c1 | IC50 | 2.1 µM |

Exam item: Any idea what its IC50 is? The compound is COc1ccc2[nH]c(-c3ccc(N(C)C)cc3)nc2c1
Marked response: 6.8 µM

Exam item: Any idea what its IC50 is? The compound is COc1ccc2nc(-c3ccc(-c4nc5ccc(OC)cc5[nH]4)cc3)[nH]c2c1
Marked response: 5.1 µM

Exam item: Any idea what its IC50 is? The compound is COc1ccc2[nH]c(-c3cccc([N+](=O)[O-])c3)nc2c1
Marked response: 5.1 µM

Exam item: Any idea what its IC50 is? The compound is COc1ccc2[nH]c(-c3ccccc3[N+](=O)[O-])nc2c1
Marked response: 3.4 µM

Exam item: Any idea what its IC50 is? The compound is COc1ccc2[nH]c(-c3cc(Cl)cc(Cl)c3O)nc2c1
Marked response: 0.1 µM

Exam item: Any idea what its IC50 is? The compound is COc1ccc2[nH]c(-c3ccc4ccccc4c3)nc2c1
Marked response: 25.3 µM

Exam item: Any idea what its IC50 is? The compound is COc1ccc2[nH]c(-c3ccc(C)cc3C)nc2c1
Marked response: 4.1 µM

Exam item: Any idea what its IC50 is? The compound is CCOc1ccc(-c2nc3cc(OC)ccc3[nH]2)cc1OC
Marked response: 11.3 µM

Exam item: Any idea what its IC50 is? The compound is COc1ccc2[nH]c(-c3ccc(O)cc3)nc2c1
Marked response: 0.8 µM

Exam item: Any idea what its IC50 is? The compound is COc1ccc2[nH]c(-c3ccc(Cl)c(Cl)c3)nc2c1
Marked response: 0.05 µM

Exam item: Any idea what its IC50 is? The compound is COc1ccc(-c2nc3cc(OC)ccc3[nH]2)c(OC)c1
Marked response: 9.2 µM

Exam item: Any idea what its IC50 is? The compound is COc1ccc2[nH]c(-c3cccc(O)c3)nc2c1
Marked response: 1.3 µM

Exam item: Any idea what its IC50 is? The compound is COc1ccc2[nH]c(-c3ccc(OCc4ccccc4)cc3)nc2c1
Marked response: 5.8 µM

Exam item: Any idea what its IC50 is? The compound is COc1ccc2[nH]c(-c3ccc(Cl)cc3Cl)nc2c1
Marked response: 0.2 µM
